This collection of values is drawn from paper PMC4643019.

target: CTSB purified from human liver (Homo sapiens, UniProt P07858); construct: CTSB purified from human liver was purchased from Athens Research & Technology; purchased Athens Research & Technology (Athens, GA, USA); host or cells: human liver (tissue-purified); assay: Cathepsin B activity assay with purified enzyme (Z-Arg-Arg-AMC); type: biochemical; details: uncaged compound 1; CTSB 10 nM, substrate 150 μM; read-out: IC50
reported_metric: pIC50
Give bare numbers, as −log10 of the molar value.

So for `Cc1cccc(C[C@H](NC(=O)c2ccc(Cl)c(Cl)c2)C(=O)NCC#N)c1` , the logged pIC50 turned out to be 6.48

====

Target: CTSB activity in MDA-MB-231 cell lysates (Homo sapiens, UniProt P07858)
Construct: endogenous in cells; host or cells: MDA-MB-231 (ATCC) cell lysate
Experiment: Inhibition of cellular cathepsin B activity in MDA-MB-231 cell lysates (Z-Arg-Arg-AMC)
Type: biochemical
Conditions: uncaged compound 1; MDA-MB-231 lysate; read-out: IC50
Method: TNBC cell lines were originally purchased from American Type Culture Collection (Rockville, MD, USA) and authenticated using the STR PowerPlex 16 system (Promega). Cells were cultured in basal medium supplemented with 10% fetal bovine serum (MDA-MB-231, DMEM; Hs578T, DMEM + 10 μg/ml bovine insulin). […] CTSB activity was measured as previously described. […]
reported_metric: pIC50
Give bare numbers, as −log10 of the molar value.

Item: `Cc1cccc(C[C@H](NC(=O)c2ccc(Cl)c(Cl)c2)C(=O)NCC#N)c1` | pIC50: 5.81

====

target: CTSB activity in Hs578T cell lysates (Homo sapiens); construct: endogenous in cells; host or cells: Hs578T (ATCC) cell lysate; test: Inhibition of cellular cathepsin B activity in Hs578T cell lysates (Z-Arg-Arg-AMC); format: biochemical; details: uncaged compound 1; Hs578T lysate; read-out: IC50
reported_metric: IC50 (nM)
Numbers only, in nM.

For this compound ( `Cc1cccc(C[C@H](NC(=O)c2ccc(Cl)c(Cl)c2)C(=O)NCC#N)c1` ), measured IC50 is 910
